Recorded values, source ChEMBL document CHEMBL1141945.

Listed compounds paired with reported log10 of MIC
- Test system: Cryptococcus neoformans
- assay_info: Antifungal activity against Cryptococcus neoformans
- Type: functional
Values below are the log10 of the recorded MIC, with µg/mL as the unit.

Completed entries (count: 9):
O=C1C(=O)c2ccccc2C(O)=C1Sc1ncc[nH]1; 1.70
Clc1ccc(COC(Cn2ccnc2)c2ccc(Cl)cc2Cl)c(Cl)c1 (configuration not stated); 1.10
COC(=O)C(C)/N=C1/C(=O)c2ccccc2C(O)=C1O (configuration not stated); 1.40
COC(=O)C(CCSC)/N=C1/C(=O)c2ccccc2C(O)=C1O (configuration not stated); 1.10
COC(=O)C/N=C1\C=C(O)c2ccccc2C1=O; 1.70
C[C@@H]1[C@H](O)[C@@H](C)/C=C/C=C/C=C/C=C/C=C/C=C/C=C/[C@H](O[C@@H]2O[C@H](C)[C@@H](O)[C@H](N)[C@@H]2O)C[C@@H]2O[C@](O)(C[C@@H](O)C[C@@H](O)[C@H](O)CC[C@@H](O)C[C@@H](O)CC(=O)O[C@H]1C)C[C@H](O)[C@H]2C(=O)O; -0.11
OC(Cn1cncn1)(Cn1cncn1)c1ccc(F)cc1F; 0.00
COC(=O)C(CCSC)/N=C1\C=C(O)c2ccccc2C1=O (configuration not stated); 1.40
COC(=O)C(CC(C)C)/N=C1\C=C(O)c2ccccc2C1=O (configuration not stated); 1.40

Which log10 of MIC is listed for O=C1c2ccccc2C(=O)c2c1sc1nccn21 ?
1.10
